src = paper PMC6311682

Experiment: in vitro
Settings: human
REPORTED ENDPOINT: CC50

COMPOUND: O=c1[nH]c(-c2ccccc2)cn2cc([N+](=O)[O-])nc12 [24a]
RESULT: > 100 µM

====

System: ESKAPE pathogens S. aureus (ATCC 43300), E. coli (ATCC 25922), K. pneumoniae (ATCC 700603), A. baumannii (ATCC 19606), P. aeruginosa (ATCC 27853)
Assay: Broth microdilution MIC assay, ESKAPE pathogens
Type: cell-based
REPORTED ENDPOINT: antibacterial MIC ESKAPE

COMPOUND: O=[N+]([O-])c1cn2ccnc(OCc3ccccc3OC(F)(F)F)c2n1 [18i]
REPORTED ENDPOINT: antibacterial MIC ESKAPE
RESULT: >32 µg/mL

COMPOUND: O=[N+]([O-])c1cn2c(n1)OC[C@@H](OCc1ccc(OC(F)(F)F)cc1)C2 [pretomanid 6, pretomanid, reference compound]
REPORTED ENDPOINT: antibacterial MIC ESKAPE
RESULT: > 32 µg/mL

COMPOUND: O=c1c2nc([N+](=O)[O-])cn2ccn1Cc1ccccc1 [17b]
REPORTED ENDPOINT: antibacterial MIC ESKAPE
RESULT: > 32 µg/mL

COMPOUND: Cc1cn2cc([N+](=O)[O-])nc2c(=O)n1Cc1cccc(OC(F)(F)F)c1 [25j]
REPORTED ENDPOINT: antibacterial MIC ESKAPE
RESULT: >32 µg/mL

COMPOUND: O=c1[nH]ccn2cc([N+](=O)[O-])nc12 [17a, 2-Nitroimidazo[1,2-a]pyrazin-8(7H)-one]
REPORTED ENDPOINT: antibacterial MIC ESKAPE
RESULT: >32 µg/mL

COMPOUND: O=c1c2nc([N+](=O)[O-])cn2ccn1Cc1ccccc1OC(F)(F)F [17i]
REPORTED ENDPOINT: antibacterial MIC ESKAPE
RESULT: >32 µg/mL

COMPOUND: Cc1ccc(Cn2c(C)c(C)n3cc([N+](=O)[O-])nc3c2=O)cc1 [26d]
REPORTED ENDPOINT: antibacterial MIC ESKAPE
RESULT: >32 µg/mL

COMPOUND: Cc1cccc(Cn2ccn3cc([N+](=O)[O-])nc3c2=O)c1 [17g]
REPORTED ENDPOINT: antibacterial MIC ESKAPE
RESULT: >32 µg/mL

COMPOUND: Cc1cn2cc([N+](=O)[O-])nc2c(OCc2ccc(OC(F)(F)F)cc2)n1 [25g]
REPORTED ENDPOINT: antibacterial MIC ESKAPE
RESULT: >32 µg/mL
